Tested on: HepG2
Assay: cytotoxicity call (relative viability < 0.9)
Conditions: 10 µM
Out of some 39,000 compounds screened, about 3,300 (8.5%) were called active. For the sample, actives were picked, then their nearest neighbours and some compounds at random.

smiles.input | cytotoxicity call
C[C@@H]1CCCCO[C@@H](CN(C)Cc2ccc3c(c2)OCO3)[C@@H](C)CN([C@H](C)CO)C(=O)c2cc(NC(=O)Nc3ccc(C(F)(F)F)cc3)ccc2O1 | active
C[C@H]1CCCCO[C@@H](CN(C)Cc2ccc3c(c2)OCO3)[C@@H](C)CN([C@@H](C)CO)C(=O)c2cc(NC(=O)Nc3ccc(C(F)(F)F)cc3)ccc2O1 | active

Values were extracted from the antibiotic and cytotoxicity screens of Wong et al. (2023).
